FYI, the data here is from paper PMC12203311.

# GI50 measurements, system: DU-145

>  <COMPOUND>
Cn1cccc1/C=N/NC(=O)c1[nH]c2ccc(Br)cc2c1-c1ccccc1

>  <GI50>
399 nM

$$$$
>  <COMPOUND>
O=C(N/N=C/c1cc(Br)c(Br)[nH]1)c1[nH]c2ccc(Br)cc2c1-c1ccccc1

>  <GI50>
3180 nM

$$$$
>  <COMPOUND>
CCc1ccc(/C=N/NC(=O)c2[nH]c3ccc(Br)cc3c2-c2ccccc2)[nH]1

>  <GI50>
418 nM

$$$$
>  <COMPOUND>
O=C(N/N=C/c1[nH]ccc1Cl)c1[nH]c2ccc(Br)cc2c1-c1ccccc1

>  <GI50>
1580 nM

$$$$

====

Test system: LOX IMVI
Test: NCI60 five-dose screen
Format: cell-based
Settings: Homo sapiens, melanoma, read-out: LC50 (the source's name)
Examples of molecules with documented CC50 follow.

>  <COMPOUND>
O=C(N/N=C/c1ccc([N+](=O)[O-])[nH]1)c1[nH]c2ccc(Br)cc2c1-c1ccccc1

>  <CC50>
35.8 µM

$$$$
>  <COMPOUND>
O=C(N/N=C/c1ccc(C(=O)N2CCOCC2)[nH]1)c1[nH]c2ccc(Br)cc2c1-c1ccccc1

>  <CC50>
71.2 µM

$$$$
>  <COMPOUND>
Cc1[nH]c(/C=N/NC(=O)c2[nH]c3ccc(Br)cc3c2-c2ccccc2)c(C)c1[N+](=O)[O-]

>  <CC50>
5.73 µM

$$$$
>  <COMPOUND>
CCOC(=O)c1ccc(/C=N/NC(=O)c2[nH]c3ccc(Br)cc3c2-c2ccccc2)[nH]1

>  <CC50>
35.2 µM

$$$$
>  <COMPOUND>
O=C(N/N=C/c1[nH]ccc1Cl)c1[nH]c2ccc(Br)cc2c1-c1ccccc1

>  <CC50>
29.4 µM

$$$$
>  <COMPOUND>
O=C(N/N=C/c1cc(Br)c[nH]1)c1[nH]c2ccc(Br)cc2c1-c1ccccc1

>  <CC50>
6.98 µM

$$$$
>  <COMPOUND>
CCc1cc[nH]c1/C=N/NC(=O)c1[nH]c2ccc(Br)cc2c1-c1ccccc1

>  <CC50>
32.3 µM

$$$$

====

Test system: CAKI-1
Test: NCI60 five-dose screen
Assay type: cell-based
Details: Homo sapiens; CAKI-1, renal cancer; read-out: LC50 (the source's name)
Could you please mark yes (1) for values of CC50 below 30 µM and no (0) for values at or above it?

>  <COMPOUND>
O=C(N/N=C/c1[nH]ccc1Cl)c1[nH]c2ccc(Br)cc2c1-c1ccccc1

>  <ASSIGNED_CATEGORY>
no (0)

$$$$
>  <COMPOUND>
Cc1[nH]c(/C=N/NC(=O)c2[nH]c3ccc(Br)cc3c2-c2ccccc2)c(C)c1[N+](=O)[O-]

>  <ASSIGNED_CATEGORY>
no (0)

$$$$
>  <COMPOUND>
O=C(N/N=C/c1ccc([N+](=O)[O-])[nH]1)c1[nH]c2ccc(Br)cc2c1-c1ccccc1

>  <ASSIGNED_CATEGORY>
no (0)

$$$$
>  <COMPOUND>
CCc1c[nH]c(/C=N/NC(=O)c2[nH]c3ccc(Br)cc3c2-c2ccccc2)c1

>  <ASSIGNED_CATEGORY>
no (0)

$$$$
>  <COMPOUND>
Cc1cc(C)c(/C=N/NC(=O)c2[nH]c3ccc(Br)cc3c2-c2ccccc2)[nH]1

>  <ASSIGNED_CATEGORY>
no (0)

$$$$
>  <COMPOUND>
O=C(N/N=C/c1cc(Cl)c[nH]1)c1[nH]c2ccc(Br)cc2c1-c1ccccc1

>  <ASSIGNED_CATEGORY>
yes (1)

$$$$
>  <COMPOUND>
O=C(N/N=C/c1cc(Br)c[nH]1)c1[nH]c2ccc(Br)cc2c1-c1ccccc1

>  <ASSIGNED_CATEGORY>
yes (1)

$$$$
